Target: IDH1^R132H homodimer enzyme (Homo sapiens, UniProt O75874, R132H)
Construct: purchased not specified
Sequence (O75874 whole entry R132H): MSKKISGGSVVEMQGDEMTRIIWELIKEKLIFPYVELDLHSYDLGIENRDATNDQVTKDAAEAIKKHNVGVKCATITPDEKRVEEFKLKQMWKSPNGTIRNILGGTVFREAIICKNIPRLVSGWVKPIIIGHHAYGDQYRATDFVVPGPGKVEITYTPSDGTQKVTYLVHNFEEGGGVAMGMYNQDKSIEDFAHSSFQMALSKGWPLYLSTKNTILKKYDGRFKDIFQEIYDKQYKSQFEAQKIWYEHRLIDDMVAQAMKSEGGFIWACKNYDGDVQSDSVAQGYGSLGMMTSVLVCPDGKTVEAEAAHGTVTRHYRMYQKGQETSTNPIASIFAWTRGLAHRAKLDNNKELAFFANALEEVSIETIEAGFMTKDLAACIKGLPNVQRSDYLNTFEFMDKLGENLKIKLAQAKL
Assay: NADPH depletion assay, IDH1 R132H
Type: biochemical
Where a name gives a salt, the structure may show the parent alone.
Measured Metric: IC50 (nM)

1. CC(C)[C@H](C)n1c(=O)ccc2cnc(N[C@@H](C)c3ccc(CN4C[C@@H](C)O[C@@H](C)C4)c(F)c3)nc21
20
2. CCCn1c(=O)ccc2cnc(N[C@@H](C)c3ccc(CN4CCCCCC4)cc3)nc21
4320
3. C[C@H](Nc1ncc2ccc(=O)n(CC(C)(C)C)c2n1)c1ccc(CN2CCNCC2)cc1 [cpd 138, hydrochloride]
2260

* * *

Biological target: IDH2^R172K (Homo sapiens, UniProt P48735, R172K)
Sequence (P48735 40-452 R172K): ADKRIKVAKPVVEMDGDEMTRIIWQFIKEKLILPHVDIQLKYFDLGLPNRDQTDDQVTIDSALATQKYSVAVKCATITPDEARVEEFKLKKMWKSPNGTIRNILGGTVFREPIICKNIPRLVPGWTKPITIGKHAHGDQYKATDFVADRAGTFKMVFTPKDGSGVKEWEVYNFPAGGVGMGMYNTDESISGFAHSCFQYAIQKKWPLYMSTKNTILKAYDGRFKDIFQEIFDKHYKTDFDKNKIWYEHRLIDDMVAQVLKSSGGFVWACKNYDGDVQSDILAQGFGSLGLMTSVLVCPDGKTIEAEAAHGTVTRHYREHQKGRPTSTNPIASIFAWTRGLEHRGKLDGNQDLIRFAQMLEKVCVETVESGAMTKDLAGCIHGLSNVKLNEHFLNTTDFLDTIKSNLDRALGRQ
Experiment: NADPH depletion assay, IDH2 R172K
Measured Metric: IC50 (µM)

1) CC(C)Cn1c(=O)ccc2cnc(N[C@@H](C)c3ccc(CN4CCC(F)(F)CC4)cc3)nc21 [cpd 95]
5.16
2) CC(C)[C@H](C)n1c(=O)ccc2cnc(N[C@@H](C)c3ccc(OC4CCN(C(=O)OCc5ccccc5)CC4)cc3)nc21
1.42
3) C=CC(=O)N1CCN([C@@H](CC)c2ccc([C@H](C)Nc3ncc4ccc(=O)n(C(C)C)c4n3)cc2)CC1
0.049
4) CCn1c(=O)ccc2cnc(N[C@@H](C)C3CCCCC3)nc21
5.02
5) C[C@H](Nc1ncc2ccc(=O)n(CC(C)(C)C)c2n1)c1ccc(Oc2ccccc2)cc1
4.36
6) C=CC(=O)N1CCN(Cc2ccc([C@H](C)Nc3ncc4ccc(=O)n(CC(C)(C)CO)c4n3)cc2)CC1
3.23
7) C[C@H](Nc1ncc2ccc(=O)n(Cc3cccc(C(F)(F)F)c3)c2n1)c1ccc(Cl)cc1
2.96
8) CC(Nc1ncc2ccc(=O)n(Cc3ccccc3F)c2n1)c1ccc(CN2CCC(F)(F)CC2)cc1 (stereo not drawn)
5.03
9) C=CC(=O)N1CCN(C(=O)c2ccc([C@H](C)Nc3ncc4ccc(=O)n(CC(C)(C)C)c4n3)cc2F)CC1
0.552

* * *

Biological target: IDH1^R132H homodimer enzyme (Homo sapiens, UniProt O75874, R132H)
Assay: NADPH depletion assay, IDH1 R132H
Measured Metric: IC50

1. C[C@H](Nc1ncc2ccc(=O)n(CC3CCC3)c2n1)c1ccc(CN2CCC(F)(F)CC2)cc1
0.334 µM
2. CC(Nc1ncc2ccc(=O)n(CC(C)(C)C)c2n1)C12CC3CC(CC(C3)C1)C2 (stereo not shown)
1.09 µM
3. C[C@H](Nc1ncc2ccc(=O)n(Cc3c(F)cccc3F)c2n1)c1ccc(CN2CCC(F)(F)CC2)cc1
0.201 µM
4. CC(C)[C@H](C)n1c(=O)ccc2cnc(N[C@@H](C)c3ccc(CN4CCOCC4)c(F)c3)nc21
0.078 µM
5. COC(=O)c1ccc([C@H](C)Nc2ncc3ccc(=O)n(Cc4ccc(F)cc4C(F)(F)F)c3n2)cc1
2.44 µM
6. C[C@H](Nc1ncc2ccc(=O)n(CC(C)(C)C)c2n1)c1ccc(CO)c(F)c1
0.697 µM
7. C=C(C)C(=O)N1CCN(Cc2ccc([C@H](C)Nc3ncc4ccc(=O)n(CC(C)(C)C)c4n3)cc2)CC1
0.078 µM
8. C[C@H](Nc1ncc2ccc(=O)n(Cc3ccccc3)c2n1)c1ccc(Cl)cc1
1 µM
9. C[C@H](Nc1ncc2ccc(=O)n(CC(C)(C)CO)c2n1)c1ccc(Br)cc1
0.211 µM
10. C=CC(=O)N1CCN([C@@H](CC)c2ccc([C@H](C)Nc3cc4c(ccc(=O)n4C(C)C)cn3)cc2)CC1
0.002 µM
11. CC(Nc1ncc2ccc(=O)n(Cc3ccccc3)c2n1)c1ccc(CN2CCC(F)(F)CC2)cc1 (stereo not shown)
0.801 µM
12. C[C@H](Nc1ncc2ccc(=O)n(CC(C)(C)O)c2n1)c1ccc(CN2CCC(F)(F)CC2)cc1
2.23 µM
13. C[C@H](Nc1ncc2ccc(=O)n(CC(C)(C)C)c2n1)c1ccc(C(=O)NC2CCC(F)(F)CC2)cc1
0.529 µM
14. C=CC(=O)N1CCN(Cc2ccc([C@H](C)Nc3ncc4ccc(=O)n([C@@H](C)C(C)C)c4n3)cc2)CC1
0.022 µM
15. C[C@H](Nc1ncc2ccc(=O)n(CC(C)(C)C)c2n1)c1ccc(-c2cnn(C)c2)cc1
0.18 µM
16. CC(C)[C@H](C)n1c(=O)ccc2cnc(N[C@@H](C)c3ccc(N4CCN(C(=O)OCc5ccccc5)CC4)cc3)nc21
0.042 µM

* * *

Molecular target: IDH1^R132H homodimer enzyme (Homo sapiens, UniProt O75874, R132H)
Experiment: NADPH depletion assay, IDH1 R132H
pIC50: −log10 of the molar value.
Overview of recorded pIC50 for various molecules
Measured Metric: pIC50

1. CCC(C)n1c(=O)ccc2cnc(N[C@@H](C)c3ccc(CN4CCCC(F)(F)C4)cc3)nc21 (stereo partly shown)
7.15
2. COCCn1c(=O)ccc2cnc(N[C@@H](C)c3ccc(CN4CCC(F)(F)CC4)cc3)nc21
5.63
3. COC(=O)C(C)(C)Cn1c(=O)ccc2cnc(N[C@@H](C)c3ccc4ccccc4c3)nc21
5.83
4. C[C@H](Nc1ncc2ccc(=O)n(CC(C)(C)C)c2n1)c1ccc(OC2CCN(C(=O)OC(C)(C)C)CC2)cc1
6.70

* * *

Biological target: IDH1^R132H homodimer enzyme (Homo sapiens, UniProt O75874, R132H)
Assay: NADPH depletion assay, IDH1 R132H
Each entry below carries its recorded IC50.
Measured Metric: IC50 (nM)

1. C=CC(=O)N1CCN(C(=O)c2ccc([C@H](C)Nc3ncc4ccc(=O)n(CC(C)(C)C)c4n3)cc2F)CC1
176
2. C[C@H](Nc1ncc2ccc(=O)n(CC(C)(C)C)c2n1)c1ccc(S(C)(=O)=O)cc1
3470
3. CC(C)C(=O)N1CCC(Oc2ccc([C@H](C)Nc3ncc4ccc(=O)n([C@@H](C)C(C)C)c4n3)cc2)CC1
68
4. COC(=O)c1ccc([C@H](C)Nc2ncc3ccc(=O)n(CC(C)(C)C)c3n2)cc1
362
5. C[C@H](Nc1ncc2ccc(=O)n(CC(C)(C)C)c2n1)c1ccc(C(=O)NC2CCCCC2)cc1
288
